Target: T1, TEM-1 β-lactamase, P62593
T1 chain: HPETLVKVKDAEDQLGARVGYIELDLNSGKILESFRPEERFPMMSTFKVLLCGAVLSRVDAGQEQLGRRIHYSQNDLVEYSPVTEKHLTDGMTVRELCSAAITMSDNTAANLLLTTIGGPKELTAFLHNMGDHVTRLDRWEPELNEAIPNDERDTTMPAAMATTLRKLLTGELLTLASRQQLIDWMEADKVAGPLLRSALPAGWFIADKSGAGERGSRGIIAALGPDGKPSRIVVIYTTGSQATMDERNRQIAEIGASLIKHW
Assay: β-lactamase inhibition assay, disulfide-bonded peptide
Positions of bridges follow the written chain, without caps; N, C: chain ends. No end group written: not given here.
endpoint.name: Ki (mM)
State the answer as a number, implicitly in mM.

In plain terms, HSACSDTRRGDCG-NH2 (disulfide 4-12 (inferred)) […-NH2 (disulfide-bonded soluble peptide)] has a documented Ki of 3.5
